# Test system: HCC-78
# test: relative viability (nuclei count vs DMSO), 5 days (fraction); higher = more cells survive
# condition_summary: first compound 0.3162 µM
readout: relative viability
In your answer, state the number alone without any accompanying words.

compound: NC(=O)Nc1cc(-c2cccc(F)c2)sc1C(=O)N[C@H]1CCCNC1 [AZD7762] + COc1cc2c(Oc3ccc(NC(=O)C4(C(=O)Nc5ccc(F)cc5)CC4)cc3F)ccnc2cc1OCCCN1CCOCC1 [Foretinib] (partner 0.25 µM)
relative viability: 0.682
--
compound: NC(=O)Nc1cc(-c2cccc(F)c2)sc1C(=O)N[C@H]1CCCNC1 [AZD7762] + Cc1nc(Nc2ncc(C(=O)Nc3c(C)cccc3Cl)s2)cc(N2CCN(CCO)CC2)n1 [Dasatinib] (partner 0.075 µM)
relative viability: 0.353
--
compound: NC(=O)Nc1cc(-c2cccc(F)c2)sc1C(=O)N[C@H]1CCCNC1 [AZD7762] + Nc1ncn([C@H]2C[C@H](O)[C@@H](CO)O2)c(=O)n1 [Decitabine] (partner 2 µM)
relative viability: 0.904

As a next step, examine the compound that follows.
Q) Read the entry NC(=O)Nc1cc(-c2cccc(F)c2)sc1C(=O)N[C@H]1CCCNC1 [AZD7762] + CC(=O)Nc1cccc(-n2c(=O)n(C3CC3)c(=O)c3c(Nc4ccc(I)cc4F)n(C)c(=O)c(C)c32)c1 [Trametinib] (partner 0.02 µM) and write its reported relative viability.
A) 0.969
